Just for reference, paper PMC8515607 is where these values come from.

system: A549; test: cells; type: cell-based, human; conditions: Homo sapiens, A549, 72 h, read-out: A549 IC50 (nM), 72 h exposure, SRB, mean ± SD
For each of the compounds below, state its log10 IC50.
Would you kindly interpret these values as log10 of IC50 expressed in nM?

Reported log10 IC50, compound C=CCOC(=O)NCc1cn([C@H]2CCc3cc(OC)c(OC)c(OC)c3-c3ccc(NC)c(=O)cc32)nn1 : ____
0.52

Reported log10 IC50, compound CCOC(=O)c1nnn([C@H]2CCc3cc(OC)c(OC)c(OC)c3-c3ccc(NC)c(=O)cc32)c1C(=O)OCC : ____
1.86

Reported log10 IC50, compound CNc1ccc2c(cc1=O)[C@@H](n1cc(C(=O)OC)nn1)CCc1cc(OC)c(OC)c(OC)c1-2 : ____
1.11

Reported log10 IC50, compound CCOC(=O)NCc1cn([C@H]2CCc3cc(OC)c(OC)c(OC)c3-c3ccc(NC)c(=O)cc32)nn1 : ____
0.68

Reported log10 IC50, compound CNc1ccc2c(cc1=O)[C@@H](n1cc(COCc3ccccc3)nn1)CCc1cc(OC)c(OC)c(OC)c1-2 : ____
0.84

Reported log10 IC50, compound CCCc1cn([C@H]2CCc3cc(OC)c(OC)c(OC)c3-c3ccc(NC)c(=O)cc32)nn1 : ____
1.18

Reported log10 IC50, compound CNc1ccc2c(cc1=O)[C@@H](n1cc(-c3ccc(Cl)cc3)nn1)CCc1cc(OC)c(OC)c(OC)c1-2 : ____
1.59

Reported log10 IC50, compound CNc1ccc2c(cc1=O)[C@@H](NC(C)=O)CCc1cc(OC)c(OC)c(OC)c1-2 : ____
0.64

Reported log10 IC50, compound CNc1ccc2c(cc1=O)[C@@H](n1cc(CCl)nn1)CCc1cc(OC)c(OC)c(OC)c1-2 : ____
1.11

Reported log10 IC50, compound CNc1ccc2c(cc1=O)[C@@H](n1cc(C(=O)OCc3ccc(F)cc3)nn1)CCc1cc(OC)c(OC)c(OC)c1-2 : ____
1.32

Reported log10 IC50, compound CNc1ccc2c(cc1=O)[C@@H](n1cc(COC(=O)c3ccccc3Cl)nn1)CCc1cc(OC)c(OC)c(OC)c1-2 : ____
0.46

Reported log10 IC50, compound CNc1ccc2c(cc1=O)[C@@H](n1cc(-c3ccccn3)nn1)CCc1cc(OC)c(OC)c(OC)c1-2 : ____
1.54

Reported log10 IC50, compound CNc1ccc2c(cc1=O)[C@@H](n1cc(CNC(=O)CCC(F)(F)F)nn1)CCc1cc(OC)c(OC)c(OC)c1-2 : ____
1.04
